experiment: Antiproliferative activity against human NPM-ALK positive anaplastic large cell lymphoma karpas299 cell line
measured_endpoint: pIC50
Give bare numbers, as −log10 of the molar value.

smiles_record | pIC50
CN1CCN(CCc2ccc(NC(=O)c3cc(-c4ccc5c(c4)OCO5)c[nH]c3=O)cc2)CC1 | 5.12

Query :: Which pIC50 is listed for `CN1CCN(Cc2ccc(NC(=O)c3cc(-c4ccc5c(c4)OCO5)c[nH]c3=O)cc2)CC1` ?
Result :: 4.95
